# target_under_test: T1, recombinant human RON SEMA and PSI domains (human, UniProt Q04912 25-571)
# T1 construct: domain: SEMA+PSI; Commercial protein (R&D Systems); also called rhRON SEMA+PSI; hRON SEMA+PSI
# assay_explanation: SPR, purified Ab captured on anti-human IgG Fc, 37 C
property_label: kon (M⁻¹ s⁻¹)
Express your answer in M⁻¹ s⁻¹, writing the number without its unit.

binder: Sh07F01-62 (antibody, human IgG1, kappa, V domains shown, Humanized, human IgG1/kappa: Sh07F01 Hv3-48 D28T T60A L63V E65G IgG1 + HE L 07F01 Kv1-9 Kappa) VH: EVQLVESGGGLVQPGGSLRLSCAASGFTFSRHWMSWVRQAPGKGLEWVSEINPDSRTINYAPSVKGRFTISRDNAKNSLYLQMNSLRAEDTAVYYCARRVRIHYYGAMDSWGQGTTVTVSS VL: DIQLTQSQSFVSTSVGDRVTVTCRASQNVGSSLVWYQQKPGKSPKTLIYSASFLYSGVPSRFSGSGSGTEFTLTISSVQPEDFADYFCQQYNNYPLTFGGGTKVEIKR
result_unit: M⁻¹ s⁻¹
kon: 2.8e+06
--
binder: Sh07F01-83 (antibody, human IgG1, kappa, V domains shown, Humanized, human IgG1/kappa: Sh07F01 Hv3-48 D28T T60A L63V E65G IgG1 + Sh07F01 Kv1-9 F1 Kappa) VH: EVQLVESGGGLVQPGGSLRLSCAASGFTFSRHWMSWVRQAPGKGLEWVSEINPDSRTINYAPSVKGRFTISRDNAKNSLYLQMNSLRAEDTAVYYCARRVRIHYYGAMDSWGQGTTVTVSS VL: DIQLTQSPSFLSASVGDRVTITCRASQNVGSSLVWYQQKPGKAPKTLIYSASFLYSGVPSRFSGSGSGTEFTLTISSLQPEDFATYYCQQYNNYPLTFGGGTKVEIKR
result_unit: M⁻¹ s⁻¹
kon: 3.2e+06
--
binder: Sh07F01-2 (antibody, human IgG1, kappa, V domains shown, also called Chimeric 07F01 C102S) VH: EVKLLESGGGLVQPGGSLKLSCAASGFDFSRHWMSWVRLAPGKGLEWIAEINPDSRTINYTPSLKEKFIISRDNAKNSLFLQMNRVRSEDTALYYCARRVRIHYYGAMDSWGQGTSVTVSS VL: DIVLTQSQKIVSTSVGARVSVTCKASQNVGSSLVWYQQKPGQSPKTLIYSASFRYSGVPDRFTGSGSGTDFTLTISNVQSEDLADYFCQQYNNYPLTFGAGTKLELKR
result_unit: M⁻¹ s⁻¹
kon: 1.7e+06

Next binder, please.
Provide only the value of recorded kon for Sh07F01-69 (antibody, human IgG1, kappa, V domains shown, Humanized, human IgG1/kappa: Sh07F01 Hv3-48 IgG1 + Sh07F01 Kv1-9 F1 Kappa) VH: EVQLVESGGGLVQPGGSLRLSCAASGFDFSRHWMSWVRQAPGKGLEWVSEINPDSRTINYTPSLKERFTISRDNAKNSLYLQMNSLRAEDTAVYYCARRVRIHYYGAMDSWGQGTTVTVSS VL: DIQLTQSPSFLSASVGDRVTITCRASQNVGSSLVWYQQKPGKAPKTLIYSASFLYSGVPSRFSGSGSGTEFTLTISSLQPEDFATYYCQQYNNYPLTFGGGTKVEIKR 2.5e+06
